Tested on: MS2 coat protein
MEASUREMENT PROTOCOL: apparent KD of MS2 coat protein; designed switch direction (-1 OFF switch, 1 ON switch): 1; higher = weaker reporter binding
MEASUREMENT PARAMETERS: input ligand: none
PROPERTY NAME: apparent KD of MS2 coat protein (µM)
Answer with a number only, understood to be in µM.

Here's what some known entries look like.
BIOSEQUENCE	UNITS TEXT	apparent KD of MS2 coat protein
AACAUGAGGAUCACCCAUGUGGAAUACUGAAGCAGCUCAGGGAAGGAUAUGGUUGACACCCUCGACCAGAAGGUCCAAAUUAAA [Onarar] (Eterna round: R96, puzzle: Same State NG 3)	µM	0.121
CUGUAUCGCGGAGGAUAUGGGCUGAGACCAGGACAACCCUGGUCAACAUGAGGAUCACCCAUGUCCCAGAAGGCCGCGAUGCUA [Zazalaonor] (Eterna round: R96, puzzle: Same State NG 2)	µM	0.108
UGAGGUGUAGCAGGAUAUGCCGUCAGUCACCCGGCAGAAGGGCUGAAAGCAUGCUCGCACAUGAGGAUCACCCAUGUCACAGUG [Eternabot solution 17] (Eterna round: R96, puzzle: Same State NG 1)	µM	0.044
GGUCGGACUCACAUGAGGAUCACCCAUGUUGCGGAAACGCGGCAGGAUAUCUGUCCGAAAAGGUCAGAGAAGGGUCAACCGACC [Fiskers NG3ss - 62] (Eterna round: R96, puzzle: Same State NG 3)	µM	0.199
GUUACAUGAGGAUCACCCAUGUAUGUGUGGGAGUAAGUGUCUUAGGAUAUCUAUUAUUUUAAUUAAGAGAAGGAAGAUUGUUGU [JMF's solution 20] (Eterna round: R96, puzzle: Same State NG 3)	µM	0.122
GGCUAGGAUAUCUGCAGGAUCACCGCGGAGAAGGAGCUAAGCUAGGAUAUCCGCAGGAUCACCGCGGAGAAGGAGCAUAAUAUA [pwkr ssNG3 DX 2xF5 +2xFMN.15] (Eterna round: R96, puzzle: Same State NG 3)	µM	0.0181
AUAACACUGGCAGGAUAUGGGAAAGGAAGUGUACCAGAAGGGCCAGAACGGCGAUGGACAUGAGGAUCACCCAUGUCUUAGCCU [PowerStrip SSNG 1.4] (Eterna round: R96, puzzle: Same State NG 1)	µM	0.0139
CUGAGCGAUUAAGGAUAUCACGUCGUUUAGACGUGAGAAGGUGAUCAUAACAUGAGGAUCACCCAUGUAUUACAUGAAGCUCAG [SSNG1/3-A3] (Eterna round: R96, puzzle: Same State NG 1)	µM	0.128
AAAAUGCGGGAAGGAUAUGGGAAAGGAAGUGUACCAGAAGGUCUCGCGGCCAAGGACAUGAGGAUCACCCAUGUUAACGCCCGA [PowerStrip SSNG 1.8] (Eterna round: R96, puzzle: Same State NG 1)	µM	0.0408
GCCAUCGCAUGAGGAUAUGGCACCGUUUCGGUGCCAGAAGGCAUGUCAAAUGACAUGAGGAUCACCCAUGUAGUUAAGAUGGCA [JL Fiskers NG1ss - 33 mod 9] (Eterna round: R96, puzzle: Same State NG 1)	µM	0.542

Tell me the measured apparent KD of MS2 coat protein of AGUCCAGCCAGAGCUGGACAAAAGCAUGUACAUGAGGAUCACCCAUGUUCAUGUACAAGCUUUUUGCUCGUCUUAAU [Mat - hsa-mir-208a - Mod of JL - 59] (Eterna round: R96, puzzle: Sensor for hsa-mir-208a) , please. 0.583

Tell me the measured apparent KD of MS2 coat protein of GAGCCAGUCCGAGGAUAUUCAUAUUAAAUACAUGAGGAUCACCCAUGUAGGCUCAGAGAGCCUUGGGAGAAGGCGGACUGGCUC [Xeonanisa>>1] (Eterna round: R96, puzzle: Same State NG 2) , please. 0.113

Tell me the measured apparent KD of MS2 coat protein of GUGGCCUAGGCACAGGAUAUGUUUCUCGUAACAUGAGGAUCACCCAUGUGCCUUUGAGAUUUUAUGCAGAAGGGUGCACGCCACG [JL Atiinbe mod 04] (Eterna round: R96, puzzle: Same State 2) , please. 0.425

Tell me the measured apparent KD of MS2 coat protein of GGUAGGUUACUACCAGACAUGAGGAUCACCCAUGUAAGUGGGAAGGAUAUGGUACCGUUUCGGUACCAGAAGGUCCUAUGUAAG [JL SSNG3 1.45] (Eterna round: R96, puzzle: Same State NG 3) , please. 0.936

Tell me the measured apparent KD of MS2 coat protein of GGUAGGUUACUACCAAACUACAUGAGGAUCACCCAUGUGUGGGAGGAUAUGGUACCUAUUUGGUACCAGAAGGUCCAAUUAAUU [Fiskers NG3ss - 6] (Eterna round: R96, puzzle: Same State NG 3) , please. 0.124

Tell me the measured apparent KD of MS2 coat protein of AUUGCUAGCACAGGAUAUCAUGCGAAAAUUGCGUGAGAAGGGUGGACGCUGUCAUUCACGGAGGACAUGAGGAUCACCCAUGUC [SameState NG1 #78] (Eterna round: R96, puzzle: Same State NG 1) , please. 0.0626

Tell me the measured apparent KD of MS2 coat protein of AACAAUCUAUCUGAGGAUAUCAUGUCAAAGACAUGAGGAUCACCCAUGUUGCAGGAAACUGCUCAUGAGAAGGCAGAUAGAUUGA [SS2: 1129] (Eterna round: R96, puzzle: Same State 2) , please. 0.385

Tell me the measured apparent KD of MS2 coat protein of UUAUUAUUUACAUGAGGAUCACCCAUGUUUUUAUGUCAGAGACAGGAUAUAGAAGUCUCGUUUUACUAGAAGGGUCUUUUUAUU [JR_SSNG3_Sub016] (Eterna round: R96, puzzle: Same State NG 3) , please. 0.022

Measured values drawn from the supplement of paper PMC9170038 for this set.
